system: COLO 205 colon; assay: NCI-60 one-dose screen, 48 h; settings: 10 µM unless noted
About 83,000 compounds went through this panel and 20% of them were active in at least one assay; those are over-represented in the sample as a whole. Calls of active or inactive are those of the source. Rule for the calls: active = growth percent below 10; inactive = the rest.
Could you please pick one outcome from this set? active, inactive

Would you mind telling me which call this test gave `CC1(C)CC[C@]2(C(=O)O)CC[C@]3(C)C(=CC[C@@H]4[C@@]5(C)C/C(=C/c6ccco6)C(=O)C(C)(C)[C@@H]5CC[C@]43C)[C@@H]2C1` ? active

Tell me the assay call for `COc1ccc(C=C2c3ccccc3-c3ccccc32)cc1` please. inactive

Record request — test call for `O=C(N/N=C/c1c(Cl)cccc1Cl)c1cccc(Nc2ccnc(C(F)(F)F)c2)c1` inactive

Entry `CC(C)c1ccc(C(=O)Nc2sc3c(c2C#N)CCC(=O)C3)cc1` : call = ? active

Please share the test call associated with COc1ccc2c(c1)C(C)Cc1c(Cl)nc(C)nc1N2C (stereo not drawn) . active

Per the records of this test, what outcome belongs to `CC1(C)CC[C@]2(C(=O)O)CC[C@]3(C)[C@H](CC[C@@H]4[C@@]5(C)CCC(=O)C(C)(C)[C@@H]5CC[C@]43C)[C@H]2[C@H]1OC(=O)C(F)(F)F` ? active

Any idea what this test logged for `Cc1ccc(NC(=O)N[C@@H](Cc2cc(F)cc(F)c2)C(=O)N[C@@H]2C(=O)N3CCC[C@H]3C(=O)N3CCOC[C@H]3C(=O)N[C@@H](C)C(=O)N3C[C@H](C)C[C@H]3C(=O)O[C@H]2C)cc1` ? active

GET /call?item= `CC(C)C1=NOC(=O)C1=Cc1cn(-c2ccccc2)nc1-c1ccc(Br)cc1` returns the recorded outcome of this test. inactive

Would you mind telling me which call this test gave `CCOC(=O)c1cc(C(=O)c2ccc(OC)c(OC)c2)n2ccc(-c3ccccn3)cc12` ? inactive

Hi, do you know how `O=C(CCN1CCCCC1)c1ccc(Cl)cc1` came out in this test? inactive

Query: recorded result category for `Cc1cc2c(C(C)C)c(O)c(O)c(C=NCc3ccoc3)c2c(O)c1-c1c(C)cc2c(C(C)C)c(O)c(O)c(C=NCc3ccco3)c2c1O` in this test inactive

Look up the recorded call for `O=S(=O)(c1ccc(N/N=C\c2ccccc2Cl)cc1)c1ccc(N/N=C/c2ccccc2Cl)cc1` in this test. inactive

Each compound tested received a call. Report the one for `COc1ccc2c3ccnc(C(F)(F)F)c3n(CCCCN)c2c1` . inactive

Recorded test call requested for `Cn1cc(-c2noc(C(=O)c3cn(C)c4ncc(Br)cc34)n2)c2ccccc21` inactive

Name the outcome recorded for `O=C(COc1cccc(/C=C2\Oc3ccccc3C2=O)c1)c1ccc([N+](=O)[O-])cc1` in the assay. inactive

State the result this test recorded for `CO[C@H]1CC[C@@]2(C)C(=CC[C@H]3[C@@H]4C[C@H](O)C[C@@]4(C)CC[C@@H]32)C1` . inactive

Short answer needed: outcome of this test for O=C(O)CC1CCCCC1c1ccccc1 (stereo not drawn) ? inactive

Which outcome was assigned to `Ic1ccc2[nH]cc(SSc3c[nH]c4ccc(I)cc34)c2c1` in this test? active

* * *

system: HCT-15 colon; experiment: NCI-60 one-dose screen, 48 h; details: 10 µM unless noted
This is part of a sample that, as a whole, favours compounds with a hit. Of some 83,000 tested, about 20% had one in any assay. The source made the active and inactive calls. Rule for the calls: active = growth percent below 10; inactive = the rest.
Your response should consist of one outcome taken from true (1) = active, false (0) = inactive

Recorded test call requested for `ClC1=C(Cl)C(Cl)=C(Cl)C1=Cc1ccccc1` true (1)

Hi, do you know how `CCCCCCSc1ncnc2nc[nH]c12` came out in this test? false (0)

Hi, sorry to bother you, what did the test record for `CCOc1ccccc1/C=N\Nc1ccc(S(=O)(=O)c2ccc(N/N=C/c3ccccc3OCC)cc2)cc1` ? false (0)

Look up the recorded call for `C=C(C)[C@@H]1CC[C@]2(C(=O)OC)CC[C@]3(C)[C@H](CC[C@@H]4[C@@](C)(CCc5nn[nH]n5)[C@H](C(=C)C)CC[C@]43C)[C@@H]12` in this test. true (1)

Each molecule tested received a call. Report the one for `COc1cccc(-c2[nH]c(=S)ncc2C(=O)c2ccccc2)c1` . false (0)

Kindly provide the recorded test outcome for the following molecule: `CC(C)C1=NOC(=O)C1=Cc1cn(-c2ccccc2)nc1-c1cccc([N+](=O)[O-])c1` false (0)

Outcome logged for `CCN1c2ccccc2C(Cl)(c2ccc(N(C)C)cc2)c2ccccc21` in this assay: false (0)

Just curious, what result did `CC1(C)S[C@@H]2[C@H](NC(=O)[C@H](C(=O)O)c3cccs3)C(=O)N2[C@H]1C(=O)O` get here? false (0)

Please state the recorded outcome for this molecule: `CN(C)CCOc1ccc(/C(=C(/CCCl)c2ccccc2)c2ccccc2)cc1` false (0)

Dear all, I need the recorded test outcome for `c1ccc(-c2nc(N3CCCNCC3)c3nc(-c4ccccc4)oc3n2)cc1` , thank you. true (1)

* * *

test system: SK-MEL-5 melanoma; experiment: NCI-60 one-dose screen, 48 h; settings: 10 µM unless noted
This is part of a sample that, as a whole, favours compounds with a hit. Of some 83,000 tested, about 20% had one in any assay. Calls of active or inactive are those of the source. How the source made its calls: active means growth percent below 10; inactive means the rest.
Write down the outcome that applies. Available outcomes: 1 for active, 0 for inactive

Can you look up the reported call for `CCN(CC)c1ccc(/C=C/C=C2\NC(=O)NC2=O)cc1` for me? 1

Write down the call the test reported for this molecule. Item: `O=C(Nc1cccc(C2=NCCN2)c1)c1cccc(C(=O)Nc2cccc(C3=NCCN3)c2)c1` 0

Could you kindly confirm the outcome this assay logged for CC1Cc2c(ncnc2-n2cnc3ccccc32)N(C)c2ccccc21 (stereo not drawn) ? 0

Which result was noted for this molecule in the test: `COc1cccc(-c2[nH]c(=S)ncc2C(=O)c2ccccc2)c1` 0

In this assay, the call recorded for `Cn1c(=O)c(C#N)c(-c2ccco2)n2c(S(=O)(=O)Cc3ccccc3)nnc12` was what? 0

Test call for this molecule, please: N#CC1C(=O)NC(c2ccccc2[N+](=O)[O-])c2sc3c(F)cccc3c21 (stereo not drawn) 0

Assay outcome for `Cc1ccc(-c2cc(O)c(-c3ccc(C)cc3C)cc2O)c(C)c1` : what was it? 0

Which outcome did this test record for the molecule `Cc1cc[n+](CCCCCCCCCC[n+]2ccc(C)cc2)cc1` ? 0

Fill in: this test's call for `CCN(CCO)CCC(=O)c1ccc([N+](=O)[O-])cc1` is ___ 0

Each molecule tested received a call. Report the one for `CCNc1cc2c(cc1Br)-c1ccccc1C2=O` . 0

Assay outcome for Cc1nc(Cl)c2c(n1)N(C)c1ccc(Cl)cc1C(C)C2 (stereo not drawn) : what was it? 0

Outcome? `CSc1nc2sc3cc(Cl)c(Cl)cc3n2c(=N)c1C#N` 0

// return assay outcome for O=c1[nH]cnc2c1ccn2C1OC(CO)C(O)C1O (stereo not drawn) 0

Field: outcome | Entry: CC1(C(=O)O)CCC(N)(C(=O)O)C1(C)C (stereo not drawn) 0

Dear all, I need the recorded test outcome for `O=C(NCCO)c1cccnc1` , thank you. 0

// outcome(item) with item = `CC(C)[C@H]1CCC2=C3CC[C@]45OC(=O)[C@@]6(CCC(C)(C)C[C@H]64)CC[C@@]5(C)[C@]3(C)CC[C@@]21C` 0

Tell me the recorded outcome of this test for `COc1cc(C)cc2oc3oc(=O)c(C(=O)c4cc5cc(Br)ccc5o4)cc3c(=O)c12` . 0

Hi, do you know how `COc1cc(NCc2ccccc2O)c2ncccc2c1` came out in this test? 0

Each molecule tested received a call. Report the one for N#Cc1c(Cl)nc(SCC2CO2)nc1-c1ccccc1 (stereo not drawn) . 0

Please state the recorded outcome for this molecule: `Cc1cccc([N+](=O)[O-])c1I` 0

Tell me the recorded outcome of this test for `CCCN1CC(c2ccc(OC)c(OC)c2)=C(c2cn(C(=O)OCC)c3ccccc23)C1=O` . 0

How was CCCCN(CCCC)CC(O)c1ccc(OCc2ccccc2)c2ccccc12 (stereo not drawn) classified in this test? 0

# lookup: test call for `O=C(Nc1ccc(Oc2ccc(F)cc2)c(Cl)c1)c1cccnn1` 0

* * *

tested on: CAKI-1 renal; experiment: NCI-60 one-dose screen, 48 h; settings: 10 µM unless noted
About 83,000 compounds went through this panel and 20% of them were active in at least one assay; those are over-represented in the sample as a whole. The source made the active and inactive calls. Rule for the calls: active = growth percent below 10; inactive = the rest.
Choose the fitting class; nothing outside active, inactive is accepted.

Recorded test outcome, item NC(=O)CC1C=CCC1 (centres undefined) inactive

Test call, this molecule: `Clc1ccc2nc(-c3ccc(-c4ccc(/C=N/NC5=NCCN5)cc4)s3)cn2c1` inactive

Assay outcome for `Nc1cc(NN=C(c2ccc(O)cc2)c2ccc(O)cc2)c([N+](=O)[O-])cc1[N+](=O)[O-]` : what was it? inactive

Outcome logged for `COc1cc(C)cc2oc3oc(=O)c(C(=O)c4cc5cc(Br)ccc5o4)cc3c(=O)c12` in this assay: inactive

I would be grateful if you could indicate the recorded call for `C=C(C)[C@@H]1CC[C@]2(C(=O)NCCNCCNCCN)CC[C@]3(C)[C@H](CC[C@@H]4[C@@]5(C)CCC(=O)C(C)(C)[C@@H]5CC[C@]43C)[C@@H]12` . active

Which outcome did this test record for the molecule CCOC(=O)c1nn(C2CCCCO2)c2ccc(NC(=O)CSc3nc4ccccc4c(=O)[nH]3)cc12 (centres undefined) ? inactive

What outcome does the record of this test show for CCCCN(CCCC)CC(O)c1ccc(OCc2ccccc2)c2ccccc12 (centres undefined) ? inactive

What call does the record list for `Cc1ccc(-c2cc(-c3ccc(C)cc3)nc(N3CCN(CCNc4ccnc5cc(Cl)ccc45)CC3)n2)cc1` ? inactive

Give the logged outcome of this assay for the following molecule: `O=C(Nc1cccc(C2=NCCN2)c1)c1cccc(C(=O)Nc2cccc(C3=NCCN3)c2)c1` inactive

I'd appreciate the recorded outcome for `O=C(O)c1cn(C2CC2)c2cc(N3CCN(Cc4cc(Cl)ccc4O)CC3)c(F)cc2c1=O` from this test. inactive

What outcome does the record of this test show for `C=C(C)[C@@H]1CC[C@]2(COCCC#N)CC[C@]3(C)[C@H](CC[C@@H]4[C@@](C)(CCCNCCC#N)[C@H](C(=C)C)CC[C@]43C)[C@@H]12` ? inactive

Given `COc1c(C(C)=O)c(OCCCCOc2c(C(C)=O)c(OC)c3ccoc3c2OC)c(OC)c2occc12` , state the outcome it received in this test. inactive

Called result for `COc1ccc2nc3cc(Cl)ccc3c(Nc3ccc(O)cc3)c2c1` inactive

Could you please tell me the result logged for COc1ccc2nc3c(cc2c1)C(=O)CC(C(F)(F)F)C3 (centres undefined) in this assay? inactive

Field: outcome | Entry: `O=C(O)c1ccccc1C(F)(F)F` inactive

Which outcome was entered for the molecule `C=C(C)[C@@H]1CC[C@]2(COCCCN)CC[C@]3(C)[C@H](CC[C@@H]4[C@@](C)(CCCNCCCN)[C@H](C(=C)C)CC[C@]43C)[C@@H]12` in this test? active

// param item: `Cc1cccc([N+](=O)[O-])c1I` ; yields the recorded call inactive

Lab log entry: `Cc1nc(Cl)cc(N(c2cc(Cl)nc(C)n2)c2ncc(C(=O)Nc3c(C)cccc3Cl)s2)n1` — outcome as called in the assay? active

State the result this test recorded for `CC(C)C1=NOC(=O)C1=Cc1cn(-c2ccco2)nc1-c1ccccc1` . inactive
